molecular target: EDIII-DV4 (Dengue virus serotype 4, UniProt P09866 580-672); assay: indirect ELISA, coated recombinant EDIII
Sequence (P09866 580-672 limits assumed): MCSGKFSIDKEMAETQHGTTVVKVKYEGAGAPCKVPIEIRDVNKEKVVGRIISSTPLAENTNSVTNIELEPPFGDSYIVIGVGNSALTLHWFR
MEASURE NAME: binding result

Record excerpt, results attached:
4E11 VL Ser60Arg single mutant (antibody, V domains shown, also called S60R) VH: VKLLEQSGAELVKPGASVRLSCTASGFNIKDTYMSWVKQRPEQGLEWIGRIDPANGDTKYDPKFQGKATITADTSSNTAYLHLSSLTSGDTAVYYCSRGWEGFAYWGQGTLVTVSA VL: ELVMTQTPASLAVSLGQRATISCRASENVDRYGNSFMHWYQQKAGQPPKLLIYRASNLERGIPARFSGSGSRTDFTLTINPVEADDVATYFCQRSNEVPWTFGGGTKLEIKR
binds
4E11 VL Ser60Tyr single mutant (antibody, V domains shown, also called S60Y) VH: VKLLEQSGAELVKPGASVRLSCTASGFNIKDTYMSWVKQRPEQGLEWIGRIDPANGDTKYDPKFQGKATITADTSSNTAYLHLSSLTSGDTAVYYCSRGWEGFAYWGQGTLVTVSA VL: ELVMTQTPASLAVSLGQRATISCRASENVDRYGNSFMHWYQQKAGQPPKLLIYRASNLEYGIPARFSGSGSRTDFTLTINPVEADDVATYFCQRSNEVPWTFGGGTKLEIKR
binds
4E11 VH Ala55Asp single mutant (antibody, V domains shown, also called A55D) VH: VKLLEQSGAELVKPGASVRLSCTASGFNIKDTYMSWVKQRPEQGLEWIGRIDPDNGDTKYDPKFQGKATITADTSSNTAYLHLSSLTSGDTAVYYCSRGWEGFAYWGQGTLVTVSA VL: ELVMTQTPASLAVSLGQRATISCRASENVDRYGNSFMHWYQQKAGQPPKLLIYRASNLESGIPARFSGSGSRTDFTLTINPVEADDVATYFCQRSNEVPWTFGGGTKLEIKR
binds
4E11 VL Asn57Ser single mutant (antibody, V domains shown) VH: VKLLEQSGAELVKPGASVRLSCTASGFNIKDTYMSWVKQRPEQGLEWIGRIDPANGDTKYDPKFQGKATITADTSSNTAYLHLSSLTSGDTAVYYCSRGWEGFAYWGQGTLVTVSA VL: ELVMTQTPASLAVSLGQRATISCRASENVDRYGNSFMHWYQQKAGQPPKLLIYRASSLESGIPARFSGSGSRTDFTLTINPVEADDVATYFCQRSNEVPWTFGGGTKLEIKR
binds

The value of binding result measured for the binder 4E11 VL Glu59Asn single mutant (antibody, V domains shown, also called E59N) VH: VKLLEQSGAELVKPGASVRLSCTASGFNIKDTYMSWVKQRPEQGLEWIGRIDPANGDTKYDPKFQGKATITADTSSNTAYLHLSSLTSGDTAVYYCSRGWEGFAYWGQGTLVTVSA VL: ELVMTQTPASLAVSLGQRATISCRASENVDRYGNSFMHWYQQKAGQPPKLLIYRASNLNSGIPARFSGSGSRTDFTLTINPVEADDVATYFCQRSNEVPWTFGGGTKLEIKR turned out to be binds
